The measurements presented in this section are drawn from patent US20150098939A1.

# targetDesc: T1, hGPVI-hFc fusion protein (human)
# T1 construct: also called GPVI-Fc; human GPVI-Fc fusion protein
# assayName: DELFIA competition assay: Fab preincubated with GPVI-Fc (3 µg/ml), binding to collagen-coated plate, Test 3
reportedMetric: IC50 (µg/mL)
Lab book: enter the figure in µg/mL, no units written.

Use these answered entries as a reference point.
binder	measValue
humanized anti-GPVI Fab VL1/VH5 (Fab, V domains shown, Recombinant Fab: VH fused to CH1 of human IGHG1 (Q569F4), HC ends in DKTHT; VL fused to human constant kappa (Q502W4); also called VL1 with VH5) VH: QVQLQESGPGLVAPSQSLSITCTVSGFSLTGYGVNWVRQPPSRGLEWLGMIWGDGSTDYQSTLKSRLSISKDNSKSQVFLKMNSLTTDDTARYYCARDLPMDEWGQGTSVTVSS VL: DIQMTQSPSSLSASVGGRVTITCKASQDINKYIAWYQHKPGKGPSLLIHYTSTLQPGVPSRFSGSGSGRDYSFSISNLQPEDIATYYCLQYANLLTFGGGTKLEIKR	1.24
humanized anti-GPVI Fab VL3/VH4 (Fab, V domains shown, Recombinant Fab: VH fused to CH1 of human IGHG1 (Q569F4), HC ends in DKTHT; also called VL3 with VH4) VH: QVQLQESGPGLVAPSQSLSITCTVSGFSLTYYGVNWVRQPPSRGLEWLGMIWGDGSTDYQSTLKSRLSISKDNSKSQVFLKMNSLTTDDTARYYCARDLPMDYWGQGTSVTVSS VL: DIQMTQSPSSLSASVGGRVTITCKASQDINKYIAWYQHKPGKGPSLLIHYTSTLQPGVPSRFSGSGSGRDYSFSISNLQPEDIATYYCLQYALLLTFGGGTKLEIKR	1.02
humanized anti-GPVI Fab VL1/VH1 (Fab, V domains shown, Recombinant Fab: VH fused to CH1 of human IGHG1 (Q569F4), HC ends in DKTHT; VL fused to human constant kappa (Q502W4); also called VL1 with VH1) VH: QVQLQESGPGLVAPSQSLSITCTVSGFSLTGYGVNWVRQPPSRGLEWLGMIWGDGSTDYQSTLKSRLSISKDTSKSQVFLKMNSLTTDDTARYYCARDLPMDYWGQGTSVTVSS VL: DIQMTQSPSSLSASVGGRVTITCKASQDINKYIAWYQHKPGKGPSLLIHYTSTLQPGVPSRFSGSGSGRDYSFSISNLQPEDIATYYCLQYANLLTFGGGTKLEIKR	1

Turning now to a further record.
Exercise: If you can, please state the reported IC50 value of humanized anti-GPVI Fab VL2/VH2 (Fab, V domains shown, Recombinant Fab: VH fused to CH1 of human IGHG1 (Q569F4), HC ends in DKTHT; VL fused to human constant kappa (Q502W4); also called VL2 with VH2) VH: QVQLQESGPGLVAPSQSLSITCTVSGFSLTGYGVNWVRQPPSRGLEWLGMIWGDGSTDYQSTLKSRLSISKDNSKSQVFLKMNSLTTDDTARYYCARDLPMDYWGQGTSVTVSS VL: DIQMTQSPSSLSASVGGRVTITCKASQDINKYIAWYQHKPGKGPSLLIHYTSTLQPGVPSRFSGSGSGRDYSFSISNLQPEDIATYYCLQYAHLLTFGGGTKLEIKR .
Solution: 1.05
